# assay_procedure: murine CD8 T cell vesicle adhesion modulation – mouse 2C CD8+ T cells, flow cytometry, primary screen (AID 2052);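 for response (vesicle binding): values below 100% mean blocked vesicle binding to the CD8+ T cells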
# measurement_conditions: 2C CD8+ T cell-vesicle binding, at 7 µM, stronger effect = lower value
Among all 330,000 compounds or so, about 220 (0.067%) were called active. The list comes from a sample in which actives are over-represented; it also holds close analogues and randomly drawn compounds.
measure: response (vesicle binding)

Endpoint output: response (vesicle binding) of `CCC(CC)C(=O)Nc1cc(C(=O)OC)cc(C(=O)OC)c1` . Value?
410% (inactive)

Tell me the measured response (vesicle binding) of `Cc1c(NC(=S)NC(=O)CCc2ccccc2)c(=O)n(-c2ccccc2)n1C` , please.
17.6% (active)

For the compound CC(Oc1ccccc1)C(=O)Nc1c2c(nn1-c1ccccc1)CS(=O)C2 (stereo not given) , what response (vesicle binding) is on record?
237% (inactive)

Any idea what its response (vesicle binding) is? The compound is O=C(COC(=O)CC1CC2CCC1C2)NC(=O)NC1CCCC1 (stereo not given)
248% (inactive)

Entry `CCOC(=O)C1CCN(C(=O)C2(NC(=O)Nc3cccc(F)c3)CCCCC2)CC1` has what response (vesicle binding)?
360% (inactive)

For `COc1cc(NC(=S)NNC(=O)CC(C)C)c(OC)cc1Cl` , what is its reported response (vesicle binding)?
458% (inactive)

Param item = `COc1cc(OC)c(-n2cc(-c3ccc(Cl)cc3)[nH]c2=O)cc1Cl` ; retrieve measured response (vesicle binding).
546% (inactive)

Recorded response (vesicle binding) for `C[C@H](OC(=O)n1ccnc1)[C@@H]1O[C@@]2(C)CCC[C@@H]1O2` , please?
376% (inactive)

// response (vesicle binding) lookup, key: `O=C(O)c1[nH]c2ccccc2c1C(c1cccc(O)c1)c1c(C(=O)O)[nH]c2ccccc12`
361% (inactive)

Consider the compound `O=C(O)c1ccccc1-c1ccccc1C(=O)NCCc1ccccc1` and give its measured response (vesicle binding).
437% (inactive)

---

# assay_procedure: murine CD8 T cell vesicle adhesion modulation – mouse 2C CD8+ T cells, flow cytometry, primary screen (AID 2052);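 for double positive events: binding gate set so that unloaded-vesicle control wells show 10% double positive cells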
# measurement_conditions: 2C CD8+ T cell-vesicle binding, at 7 µM, stronger effect = lower value; measured here: CD8+ vesicle-bound cell fraction
In all, about 330,000 compounds went through this assay and about 220 (0.067%) were called active. The full list was thinned out, with actives kept by preference.
Label fulfilled when double positive events is strictly below 40%; otherwise label not fulfilled.

Determine whether this molecule shows double positive events lower than 40% (ties excluded): `NS(=O)(=O)c1cc(Cl)c(Cl)c(S(N)(=O)=O)c1`
not fulfilled

Criterion: double positive events strictly below 40%. Is it met by COC(=O)C(C(=O)Nc1cccc(C)n1)C1CCCCCC1 (stereo unspecified) ?
not fulfilled

Is 40% strictly greater than the molecule's reported double positive events? molecule: `CCCn1cc(S(=O)(=O)c2ccc(C)cc2)c(=O)c2cc(OCC)ccc21`
fulfilled

Please determine if `Cc1cc(C)c(NC(=O)CSc2nc3ccncc3[nH]2)c(C)c1` is below 40% in terms of double positive events.
fulfilled

Does the reported double positive events of the following molecule sit strictly below 40%? `CCN1CCN(C(=O)C2CCN(S(=O)(=O)c3cc(Cl)ccc3Cl)CC2)CC1`
fulfilled

double positive events strictly < 40% for this molecule? COc1ccc(NC(C(=O)Nc2cccc(C(C)=O)c2)c2ccccc2)cc1 (stereo unspecified)
fulfilled

Dear reviewer, please state whether `CO/N=C/c1ccc(N2CCN(C(=O)c3cccc(Cl)c3)CC2)c([N+](=O)[O-])c1` has double positive events strictly beneath 40%.
fulfilled

is_below(double positive events, 40%) for `CCOC(=O)C1CCN(C(=O)C2(NC(=O)Nc3cccc(F)c3)CCCCC2)CC1` ?
fulfilled

Strictly below 40% in double positive events? `NC(=O)COc1ccc(C23CC4CC(CC(C4)C2)C3)cc1`
not fulfilled

Lab note: confirm whether the reported double positive events for this molecule is below 40%, equality not counting. molecule: `COc1ccc(C(=O)OCC(=O)NC(=O)CCSc2ccccc2)cc1`
not fulfilled

Strictly below 40%: is that where double positive events of `CC(C)(C)c1cc(P(=O)(c2ccccc2)c2ccccc2)ccc1O` sits?
fulfilled

From: PubChem BioAssay AID2052
